The reported numbers originate from ChEMBL document CHEMBL1142854.

Test: Peak plasma concentration in mouse
Format: ADME, organism-based
Each entry below carries its recorded Cmax.

See these solved cases before continuing.
{"columns": ["molecule", "Cmax"],
 "data": [
  ["CC(C)(C)C1CCC2(CC1)CN(c1cc(Cl)cc(Cl)c1)C(=O)N2Cc1ccc(C(=O)NCCC(=O)O)cc1 (centres undefined)", "110 nM"],
  ["CC(C)(C)C1CCC2(CC1)CCN(c1ccc(OC(F)(F)F)cc1)C(=O)N2Cc1ccc(C(=O)Nc2nnn[nH]2)cc1 (centres undefined)", "70 nM"],
  ["CC(C)(C)C1CCC2(CC1)CCN(c1ccc(OC(F)(F)F)cc1)C(=O)N2Cc1ccc(C(=O)NCc2nn[nH]n2)cc1 (centres undefined)", "10 nM"]
]}

Consider the record given below.
Record CC(C)(C)C1CCC2(CC1)CN(c1ccc(OC(F)(F)F)cc1)C(=O)N2Cc1ccc(C(=O)Nc2nnn[nH]2)cc1 (centres undefined) , field Cmax: 200 nM
